Measured log10 of Ki, listed per entry.
molecular target: UniProt P50406
In our notation, the value equals log10 of Ki in nM.

### Prompt For "CNc1nn2c(C)cc(C)nc2c1S(=O)(=O)c1ccc(F)cc1" , what is its reported log10 of Ki?
### Response -0.40

### Prompt Another compound: "CNc1nn2cccnc2c1S(=O)(=O)c1ccccc1"
### Response 0.59

### Prompt Input "CSc1nn2cccnc2c1S(=O)(=O)c1ccc(F)cc1"
### Response 2.12

### Prompt # iterate: "COc1ccc(S(=O)(=O)c2c(SC)nn3c(C)cc(C)nc23)cc1"
### Response 1.57

### Prompt Same read-out for "CNc1nn2c(COC)cc(C)nc2c1S(=O)(=O)c1ccccc1" ?
### Response 0.88

### Prompt Could you do the same for "CNc1nn2c(C)cc(C)nc2c1S(=O)(=O)c1ccc(OC)cc1" , please?
### Response 0.98

* * *

Recorded pKi by entry
biological target: 5-hydroxytryptamine receptor 6 (Homo sapiens)
Sequence (P50406 whole entry): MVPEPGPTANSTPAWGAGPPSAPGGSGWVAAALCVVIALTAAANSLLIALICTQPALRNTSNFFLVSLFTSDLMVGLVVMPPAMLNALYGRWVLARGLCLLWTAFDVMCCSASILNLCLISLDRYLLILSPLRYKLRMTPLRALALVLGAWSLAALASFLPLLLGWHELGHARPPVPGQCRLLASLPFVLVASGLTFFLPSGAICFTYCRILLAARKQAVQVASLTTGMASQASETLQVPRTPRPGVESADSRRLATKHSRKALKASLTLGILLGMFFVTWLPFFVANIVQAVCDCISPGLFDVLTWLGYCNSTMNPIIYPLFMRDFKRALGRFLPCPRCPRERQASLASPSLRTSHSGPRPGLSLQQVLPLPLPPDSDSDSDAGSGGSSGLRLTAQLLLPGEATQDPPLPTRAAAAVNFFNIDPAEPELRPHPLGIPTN
Hey, just a heads up that pKi is the negative log base 10 of the concentration in molar.

As a guide, the following entries are already answered.
mol-smiles: CSc1nn2c(C)ccnc2c1S(=O)(=O)c1ccccc1
measured: 7.78

mol-smiles: CSc1nn2ccc(C)nc2c1S(=O)(=O)c1ccc(F)c(Cl)c1
measured: 8.10

mol-smiles: CSc1nn2cccnc2c1S(=O)(=O)c1ccc(F)c(Cl)c1
measured: 7.35

mol-smiles: CNc1nn2ccc(C)nc2c1S(=O)(=O)c1ccccc1
measured: 8.84

### Prompt Requested field: pKi. Item: "CNc1nn2c(C)cc(CO)nc2c1S(=O)(=O)c1ccccc1"
### Response 9.32

### Prompt What about this molecule? "CNc1nn2c(C)cc(C)nc2c1S(=O)(=O)c1ccc(O)cc1"
### Response 8.70

### Prompt Try this molecule too: "CSc1nn2c(C)cc(C)nc2c1S(=O)(=O)c1ccc(N(C)C)cc1"
### Response 7.43

### Prompt Quick one: "CNc1nn2c(C)cc(C)nc2c1S(=O)(=O)c1ccccc1"
### Response 9.59

### Prompt Check "CSc1nn2c(C)cc(CO)nc2c1S(=O)(=O)c1ccccc1" too.
### Response 8.67

### Prompt Can you check "CNc1nn2c(C)cc(C)nc2c1S(=O)(=O)c1ccc(F)c(Cl)c1" next?
### Response 9.22

* * *

Recorded pKi values (UniProt:P50406) are given below.
Just the number, please; pKi means minus log10 of the concentration in mol/L.

Worked examples follow.
mol-smiles: CSc1nn2c(C)cc(C)nc2c1S(=O)(=O)c1ccc(O)cc1
pKi: 8.40

mol-smiles: CSc1nn2ccc(C)nc2c1S(=O)(=O)c1ccccc1
pKi: 7.78

mol-smiles: CSc1nn2c(C)cc(C)nc2c1S(=O)(=O)c1ccc(Cl)cc1
pKi: 8.50

mol-smiles: CNc1nn2c(C)cc(C)nc2c1S(=O)(=O)c1cccc(F)c1
pKi: 9.30

Attention now turns to another entry.
### Prompt Any idea what its pKi is? The compound is "CSc1nn2cccnc2c1S(=O)(=O)c1cccc(Cl)c1"
### Response 7.82
